Attribution: patent US20100184815A1

For each entry below, report its half-life at 4.9 µM value.
# Tested on: pig liver esterase
# assayName: Metabolism studies using pig liver esterase
# Assay type: in vitro ADME
# experimentalSetup: pig liver esterase in phosphate buffer pH 7.4, no plasma, 37° C.; read-out: Pig Liver Esterase (t1/2 min.) (−) Plasma
Give bare numbers, in min.

Use these answered entries as a reference point.
In [3]: df
Out[3]:
                                   compound       assayedtarget  quantitativereadout
0  CCCn1nc(Cc2ccc(C)cc2)cc1COC(=O)c1ccc(OC(C)(C)C(=O)O)cc1 [Compound 54]  pig liver esterase                    3
1  CCCCCCCCn1c(COC(=O)c2ccc(OC(C)(C)C(=O)O)cc2)nn(Cc2ccc(C)cc2)c1=O [Compound 152]  pig liver esterase                   30
2  CC(C)(Sc1ccc(C(=O)OCCc2cn(Cc3ccc(C(F)(F)F)cc3)nn2)cc1)C(=O)O [Compound 91]  pig liver esterase                   64

Hi, could you look up half-life at 4.9 µM for each item in my list?
1. CCCCCCn1c(COC(=O)c2ccc(SC(C)(C)C(=O)O)cc2)nn(Cc2ccc(C(C)(C)C)cc2)c1=O [Compound 187]
2. Cc1ccc(Cn2cc(COC(=O)c3ccc(SC(C)(C)C(=O)O)cc3)nn2)cc1 [Compound 60]

Ans.
1: 26; 2: 31
